study-target: HIV-1 Env of isolate MGRM-C-022 (subtype C) (HIV-1)
run-description: cell-based or functional assay
endpoint: IC50 (µg/mL), pseudovirus neutralization
The figure you give is taken to be in µg/mL; do not add the unit.

### Prompt Param item = PGT-123 (antibody, V domains shown) VH: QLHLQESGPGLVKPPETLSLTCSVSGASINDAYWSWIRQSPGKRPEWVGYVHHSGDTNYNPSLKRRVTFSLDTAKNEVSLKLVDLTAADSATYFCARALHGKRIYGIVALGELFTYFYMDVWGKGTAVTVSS VL: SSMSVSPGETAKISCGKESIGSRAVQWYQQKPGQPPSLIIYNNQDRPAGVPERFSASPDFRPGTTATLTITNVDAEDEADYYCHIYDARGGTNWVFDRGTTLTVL ; retrieve measured IC50 (µg/mL), pseudovirus neutralization.
### Response 0.01

Values from patent US20240132578A1
